Where do these numbers come from? They come from paper PMC5819829.

Target: T1, EGFR-ECD (extracellular domain of human epidermal growth factor receptor, 1-643) (Homo sapiens, UniProt P00533, N-linked oligosaccharides cleaved by endoglycosidase H)
T1 construct: human epidermal growth factor receptor, extracellular domain, residues 1-643 as printed; A TEV site between the ECD and the His-tag is implied by the cleavage; also called extracellular domain of human EGFR; human EGFR-ECD; source: HEK293S GnTI- cells, transient overexpression, secreted; purified (HisTrap, TEV cleavage of the His-tag, endoglycosidase H, HiTrap Q, SEC); not shown: His-tag, …
Assay: SPR; BIAcore 3000; EGFR-ECD immobilised on a CM5 chip by amine coupling; single-cycle kinetics with 50.0, 16.6, 5.55, 1.85 and 0.617 nM Fv or Fab; 30 ul/min, 60-s association, 120-s dissociation; 25 C; HBS-EP+ buffer; triplicate
Conditions: both partners purified
Kindly supply the reported Kd values for the records listed here.
Numbers only, in nM.

Sample records with Kd:
binder	Kd [nM]
059-152-Fab (Fab fragment of the fully human anti-EGFR antibody 059-152) (Fab, V domains shown, also in PDB 5XWD; its VL part is in PDB 5XWD; source: cell-free synthesis (E. coli S30 extract, dialysis mode, 0.8 mg/ml DsbC), purified (HisTrap, TEV cleavage, SEC); not shown: N11-tag, N-terminal, cleaved) VH: QVQLQESGPGLVKPSETLSLTCTVSGGSISSSSYYWGWIRQPPGKGLEWIGSIYYSGSTYYNPSLKSRVTISVDTSKNQFSLKLSSVTAADTAVYYCARLPMVTMSFDYWGQGTLVTVSS VL: SYVLTQPPSVSVAPGKTARITCGGNNIGSKSVHWYQQKPGQAPVLVIYYDSDRPSGIPERFSGSNSGNTATLTISRVEAGDEADYYCQVWDSSSDHVVFGGGTKLTVL	7.7
AzF-incorporated 059-152-Fv (other, human, also in PDB 5XWD; linker inserted just before the stop codon, followed by the amber codon that is read as AzF; Fv; AzF is the last residue of the VH chain, after the linker; also called AzF-incorporated Fv; not shown: N11-tag, N-terminal, cleaved) VH: QVQLQESGPGLVKPSETLSLTCTVSGGSISSSSYYWGWIRQPPGKGLEWIGSIYYSGSTYYNPSLKSRVTISVDTSKNQFSLKLSSVTAADTAVYYCARLPMVTMSFDYWGQGTLVTVSS VL: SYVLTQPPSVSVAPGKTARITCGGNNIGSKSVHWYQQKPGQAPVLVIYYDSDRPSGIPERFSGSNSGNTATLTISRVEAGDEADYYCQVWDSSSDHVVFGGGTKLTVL	5.8

Exercise: Form field: reported Kd of Alexa-488 conjugated 059-152-Fab (Fab, V domains shown, also in PDB 5XWD; linker inserted just before the stop codon, followed by the amber codon that is read as AzF; m6 after copper-free click chemistry; also called Alexa-488 conjugated Fab; not shown: N11-tag, N-terminal, cleaved) VH: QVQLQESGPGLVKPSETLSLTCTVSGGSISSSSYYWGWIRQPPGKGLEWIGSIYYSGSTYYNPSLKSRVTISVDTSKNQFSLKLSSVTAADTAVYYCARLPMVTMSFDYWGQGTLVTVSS VL: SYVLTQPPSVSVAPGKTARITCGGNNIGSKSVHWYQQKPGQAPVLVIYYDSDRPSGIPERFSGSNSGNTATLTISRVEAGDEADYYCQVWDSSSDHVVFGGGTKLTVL
Key: 8.1
